Every entry's value here was drawn from the OPERA property sets (Mansouri et al. 2018).

Each record here notes measured boiling point.
Field format: number, assumed °C, no unit text.

Please review the following examples before continuing.
COCC(=O)Cl	112
CC(C)(C)CC1(C)CO1 (stereo unspecified)	141
CC(C)C1CC=C(C=O)CC1 (stereo unspecified)	223
OCCO	197
FC(F)(F)C(F)(F)C(F)(F)C(F)(F)C(F)(F)C(F)(F)C(F)(F)C(F)(F)C(F)(F)C(F)(F)Br	198

// query boiling point value for entry COCC(C)=O
116

// lookup boiling point for CC=COCC
71.5

Can you share its boiling point? I mean this molecule: C#CCI
115

Sample CCC(=O)C(C)C — what was its boiling point?
114

GET /values?readout=boiling point&item= CC(C)C(O)CO (stereo unspecified)
206

I'd like to know its boiling point. The molecule in question is Cc1nccn1C
206

What does the record list as boiling point for CCCCc1ccc(O)cc1 ?
248

Name the reported boiling point value associated with the molecule CCC(O)CCC(F)(F)F (stereo unspecified)
141

---

readout kind: melting point (°C)
Give a bare numeral; the unit °C is implied.

The following compounds have reported results that may help.
CCCCOc1ccc(/N=N/c2ccc(N)nc2N)cn1	129
NC(=O)C=Cc1ccccc1	149
C1CCNCC1	-7

Record request: melting point value, item CC(=O)c1c(O)c(C)c(O)c(Cc2c(O)c3c(c(C(=O)/C=C/c4ccccc4)c2O)OC(C)(C)C=C3)c1O
212

Any idea what its melting point is? The compound is FC(F)(Cl)C(Cl)(Cl)C(F)(F)Cl
-42.9

Any idea what melting point was measured for CC=C(C)C=CC=C(C)C ?
-28

Requested field: melting point. Item: O=C(n1ccnc1)n1ccnc1
119

---

Measured log10 vapour pressure (mmHg) accompanies every entry in the list below.
Write no unit; give the number alone.

# annotated cases, reported log10 vapour pressure (mmHg) shown
CCCCCOC(C)=O	0.544
Cc1ccc(C(C)C)c(O)c1	-2.66
CC(=O)CC(C)(C)N	-0.699
Oc1cccc(Cl)c1Cl	-1.24
CC(C)Cl	2.71

I would be grateful if you could share the reported log10 vapour pressure (mmHg) for O=C(O)CC(O)C(=O)O (configuration not stated) .
-7.48

Could you tell me which log10 vapour pressure (mmHg) is on file for C=C(C)C(=O)OCC ?
1.31

Find the recorded log10 vapour pressure (mmHg) belonging to CCCCCCCC1CCCCC1 and report it.
-1.4

Given the entry Fc1c(F)c(F)c(F)c(F)c1F , report its measured log10 vapour pressure (mmHg).
1.93

Quick check: log10 vapour pressure (mmHg) of CCC(C)C(C)=O (configuration not stated) ?
1.06

---

Outcome label depends on boiling point relative to 100 °C: at/above gives MET, below gives NOT MET.

// below: answered compounds
FC1(F)OC1(F)F	NOT MET
CCCCC(O)C(=O)O (stereo not drawn)	MET
CCC(=O)C1CCCCC1	MET
CC(=O)C(C)C	NOT MET
CCOC(CO)OCC	MET

Does the compound c1cc2c3c(c1)ccc1cccc(c13)C2 have recorded boiling point that is 100 °C or more?
MET

Is the recorded value of boiling point equal to or greater than 100 °C for this compound? CC1CCC(=O)N1C (stereo not drawn)
MET

Is boiling point for C=CC(F)(F)F at or above 100 °C?
NOT MET

Dear colleague, could you confirm whether CCCCCON=O has boiling point at or above 100 °C?
MET

Is reported boiling point greater than or equal to 100 °C here: N#Cc1cccc2ccccc12
MET

Has CC/C=C/CCCCC a recorded boiling point greater than or equal to 100 °C?
MET

Hi team, for C=C(C)CCC , is the recorded boiling point at or above 100 °C?
NOT MET

Given the entry O=C1C(=O)c2ccccc2-c2ccccc21 , answer whether its boiling point meets or surpasses 100 °C.
MET

boiling point >= 100 °C for N#Cc1c(F)c(F)c(F)c(F)c1F ?
MET

Does the compound CCOC(=O)CCC(C)C have recorded boiling point that is 100 °C or more?
MET

Given CCOCCOC(C)=O , state whether its boiling point is at least 100 °C.
MET
